Field: log10 IC50. Provide a value for each of the compounds that follow.
assay: Anticancer activity against human MDA231 cells after 24 hrs by MTT assay; type: functional, cell-based; details: MDA-MB-231, 24 h
Please keep in mind that the values are log10 of IC50 expressed in µM.

Entry COc1ccc(-c2noc(C3CCCN3)n2)cc1OC1CCCC1 (centres undefined) , log10 IC50 reported as 2.33

Entry COc1ccc(-c2noc(-c3ccc(Cl)cc3)n2)cc1OC1CCCC1 , log10 IC50 reported as 2.60

Entry COc1ccc(-c2noc(-c3ccncc3)n2)cc1OC1CCCC1 , log10 IC50 reported as 2.38

Entry COc1ccc(-c2noc(CC(C)=O)n2)cc1OC1CCCC1 , log10 IC50 reported as 1.73

Entry COc1ccc(-c2noc(-c3ccc(F)cc3)n2)cc1OC1CCCC1 , log10 IC50 reported as 1.74

Entry COc1ccc(-c2noc(-c3ccc(O)cc3)n2)cc1OC1CCCC1 , log10 IC50 reported as -0.51

Entry COc1ccc(-c2noc(C3CCNCC3)n2)cc1OC1CCCC1 , log10 IC50 reported as -0.43
